Data credit: patent US12577219B2

Exercise: state measured IC50 for each of the compounds provided.
# Tested on: pancreatic cancer PANC-1cells
# test_summary: Cell proliferation assay (CCK-8)
# Format: cell-based, human
# applied_conditions: Homo sapiens, PANC-1, 72 h

What the record says about COc1cccc2c1C(=O)c1c(O)c3c(c(O)c1C2=O)C[C@@](O)(C(=O)CO)C[C@@H]3O[C@H]1C[C@H](N)[C@H](O)[C@H](C)O1 : IC50 is < 100 nM

What the record says about C[C@H]1CCC/C=C/[C@@H]2C[C@H](O)C[C@H]2[C@H](OC(=O)/C=C/c2ccccc2)/C=C/C(=O)O1 : IC50 is 100 to 1000 nM

What the record says about C[C@H]1CCC/C=C/[C@@H]2C[C@H](OC(=O)/C=C/c3ccccc3)C[C@H]2[C@H](O)/C=C/C(=O)O1 : IC50 is 100 to 1000 nM

What the record says about C[C@H]1CCC/C=C/[C@@H]2C[C@H](OC(=O)/C=C/c3ccccc3)C[C@H]2[C@H](OC(=O)/C=C/c2ccccc2)/C=C/C(=O)O1 : IC50 is 1000 to 10000 nM
